metric: melting point (°C)

> print(dat)
                                   compound  readout.units  result
1          CNC(=O)n1sc(OCc2ccc(Cl)cc2)nc1=O             °C     145
2  Cn1c(=O)cc(-c2cccc(Cl)c2)c2cc(C(N)(c3ccc(Cl)cc3)c3cnccc3Cl)ccc21 (stereo not given)             °C     180

###

Recorded melting point, one value per entry.
metric: melting point

> print(dat)
                                    compound         metric         result
 1  COc1ccc2c3c(ccc2c1)-c1ccccc1C3c1ccc(OCCN2CCCCC2)cc1 (configuration not stated)  melting point  130 to 133 °C
 2  C=CCCC(C)(NC(c1ccccc1)c1ccccc1)P(O)O (configuration not stated)  melting point         180 °C
 3  O=C(Cc1cccc([N+](=O)[O-])c1)c1c(O)c2cccnc2n(-c2ccccc2)c1=O  melting point  157 to 161 °C
 4       Oc1ccc2c(c1)CCN(Cc1ccc3c(c1)OCO3)C2  melting point  169 to 172 °C
 5  O=C(O)CCc1ccc(OCCn2c(=O)sc3cc(Cc4ccccc4)ccc32)cc1  melting point  158 to 163 °C
 6               CCOC(=O)c1ccc(C2=CCCCC2)cc1  melting point          66 °C
 7          COCC(=O)N(CC(C)=NOC)c1c(C)cccc1C  melting point    56 to 57 °C
 8  COc1ccc(C2OCc3ccccc3O2)cc1O (configuration not stated)  melting point  105 to 106 °C
 9  CCc1ccc(Oc2ccc(N3CCN(c4cccc(C)c4)CC3)nn2)cc1  melting point         107 °C
10         CNc1cc(-c2ccc(Cl)cc2)nc2nn(C)cc12  melting point  182 to 184 °C
11  Clc1cc(Nc2cc(C3CC3)n[nH]2)nc(Sc2ccc3ccccc3c2)n1  melting point  118 to 120 °C
12  CCCCc1nc2cc[nH]c(=O)c2n1Cc1ccc([N+](=O)[O-])cc1  melting point  193 to 194 °C
13  CCCCCCCCCCCCCCCCS(=O)(=O)N[C@H]1CCCNC(=O)C1  melting point  100 to 101 °C
14  CC(C)Cn1c(=O)[nH]c2c(C(N)=O)nc(-c3cccc(O)c3)nc21  melting point  374 to 376 °C
15       COC(=O)N(C)C(=O)N(SC(Cl)Cl)c1ccccc1  melting point    77 to 78 °C
16  CC(C)C(C(=O)O)c1onc(-c2ccccc2)c1-c1ccc(S(N)(=O)=O)cc1 (configuration not stated)  melting point  148 to 149 °C
17       Cc1c(N=C2NCCN2)cc(Br)cc1NS(C)(=O)=O  melting point         262 °C
18  COC(=O)CCCCCc1c(OC)cc(C(C)(C)C)c(O)c1NC(=O)NNC(=O)Nc1cc(OC)cc(C(C)(C)C)c1O  melting point  157 to 159 °C
19  O=Cc1ccc(-c2cccc(-c3ccnc4c(C(=O)c5cccs5)cnn34)c2)cc1  melting point  156 to 158 °C
20               COc1ccc(-c2ccc(Cl)nn2)cc1Br  melting point  226 to 228 °C
21   CCCc1nnc2n1-c1ccc(Cl)cc1C(c1ccccc1)=NC2  melting point         176 °C
22                        C=CCNC(=NC#N)NCC=C  melting point  66.5 to 67 °C
23                   O=C(Nc1ccccc1I)c1ccccc1  melting point  147 to 148 °C
24  CCC(=O)c1cc2n(c(=O)c1C)Cc1cc3ccccc3nc1-2  melting point  233 to 234 °C
25             CC(C)(CC(N)=O)c1ccc2c(c1)OCO2  melting point  70 to 71.5 °C
26           COc1cc(C(=O)Cc2nnnn2C)c(N)cc1Cl  melting point  178 to 181 °C
27    COC(=O)COC(=O)COc1ccc([N+](=O)[O-])cc1  melting point    88 to 90 °C
28       Nc1ccc2c(C(F)(F)F)cc(C(F)(F)F)nc2n1  melting point  198 to 204 °C
29  CSc1ccc(-c2nc(SC)c(C#N)c(=O)n2-c2ccc(F)cc2)cc1  melting point  219 to 221 °C
30  Cc1c[nH]c2ccc(Nc3ncnc4cc(-c5ccccc5)sc34)cc12  melting point  221 to 223 °C
31  CCNC(=O)c1ccccc1Nc1nc(Nc2ccc3c(c2)C(C)(C)CNC(=O)C3)ncc1Cl  melting point  261 to 262 °C
32                     O=C1Cc2cc3ccccc3nc2N1  melting point         261 °C
33  N#Cc1ccc2cccc(N3CCN(CCCCOc4ccc5c(n4)NC(=O)NCC5)CC3)c2c1  melting point  168 to 170 °C
34          CCC(=O)c1ccc2c(c1)C1(CC1)C(=O)N2  melting point  183 to 185 °C
35  Cc1cc(C(F)(F)F)nn1CC(=O)N1CCC(c2nc(C3=NOC(c4cccc(-n5cncn5)c4)C3)cs2)CC1 (configuration not stated)  melting point    83 to 85 °C
36  COC(=O)C12COc3cc(C(F)(F)F)ccc3C1=NN(C(=O)Nc1ccc(Cl)cn1)C2 (configuration not stated)  melting point  196 to 198 °C
37  NC(=O)C1CNCCN1CCCC(c1ccc(F)cc1)c1ccc(F)cc1 (configuration not stated)  melting point         114 °C
38  Clc1cccc(N2CCN(CCCCOc3ccc4scnc4c3)CC2)c1Cl  melting point  93 to 94.5 °C
39  Cc1c(O)c2c(c(C)c1NC(=O)CC(C)(C)C)[C@@H](c1ccc(C(C)C)cc1)CO2  melting point  181 to 182 °C
40          c1cc(-c2nc(-c3cnccn3)n[nH]2)ccn1  melting point  251 to 252 °C
41  CCCCCCCCCCCCNC(=S)C1(c2ccccn2)CCCS1 (configuration not stated)  melting point          60 °C
42         O=C(Cn1cnc2ccccc21)c1ccc(Cl)cc1Cl  melting point  130 to 132 °C
